Recorded inhibition at 1 µM, one value per entry.
Biological target: human 11β-HSD1 (Homo sapiens, UniProt P28845)
Construct: expressed in transfected cells; host or cells: HEK-293 (human), stably transfected
Sequence (P28845 whole entry): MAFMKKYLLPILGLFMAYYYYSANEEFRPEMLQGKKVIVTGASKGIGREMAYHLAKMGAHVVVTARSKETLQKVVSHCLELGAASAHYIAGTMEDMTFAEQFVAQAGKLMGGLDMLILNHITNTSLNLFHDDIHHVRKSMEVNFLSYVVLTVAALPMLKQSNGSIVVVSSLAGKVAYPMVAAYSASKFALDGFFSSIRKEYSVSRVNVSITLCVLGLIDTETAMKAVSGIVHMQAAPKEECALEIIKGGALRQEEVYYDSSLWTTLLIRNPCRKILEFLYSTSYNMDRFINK
Experiment: 11β-HSD1 inhibition, human HEK-293 cell based assay (SPA)
Conditions: HEK293; 1 μM, HEK-293 cells transfected with HSD11B1; read-out: Percentage of inhibition measured at 1 μM
Your answer is read as %, so omit the unit and give the number.

For orientation, consider the following solved cases.
compound | inhibition at 1 µM / %
CC(=O)Nc1cccc(CN(C)C(=O)C23CC4CC(CC(C4)C2)C3)c1 [Compound 21] | 22
CN(Cc1ccnn1C)C(=O)C12CC3CC(CC(C3)C1)C2 [Compound 18] | 34

Return inhibition at 1 µM for the following compound: Cc1csc(CN(C)C(=O)C23CC4CC(CC(C4)C2)C3)n1 [Compound 19] 31

Name the recorded inhibition at 1 µM of the compound listed here: CN(Cc1ccc(Cl)s1)C(=O)C12CC3CC(CC(C3)C1)C2 [Compound 11] 29

Please indicate inhibition at 1 µM recorded for O=C(NCc1ccccn1)C12CC3CC(CC(C3)C1)C2 [Compound 26] 45
